- assay target: T1, human IL-10 receptor (hIL-10R alpha and beta chains) on HEK-Blue IL-10 reporter cells (human, UniProt Q13651 22-578; Q08334 20-325)
- T1 sequence 1: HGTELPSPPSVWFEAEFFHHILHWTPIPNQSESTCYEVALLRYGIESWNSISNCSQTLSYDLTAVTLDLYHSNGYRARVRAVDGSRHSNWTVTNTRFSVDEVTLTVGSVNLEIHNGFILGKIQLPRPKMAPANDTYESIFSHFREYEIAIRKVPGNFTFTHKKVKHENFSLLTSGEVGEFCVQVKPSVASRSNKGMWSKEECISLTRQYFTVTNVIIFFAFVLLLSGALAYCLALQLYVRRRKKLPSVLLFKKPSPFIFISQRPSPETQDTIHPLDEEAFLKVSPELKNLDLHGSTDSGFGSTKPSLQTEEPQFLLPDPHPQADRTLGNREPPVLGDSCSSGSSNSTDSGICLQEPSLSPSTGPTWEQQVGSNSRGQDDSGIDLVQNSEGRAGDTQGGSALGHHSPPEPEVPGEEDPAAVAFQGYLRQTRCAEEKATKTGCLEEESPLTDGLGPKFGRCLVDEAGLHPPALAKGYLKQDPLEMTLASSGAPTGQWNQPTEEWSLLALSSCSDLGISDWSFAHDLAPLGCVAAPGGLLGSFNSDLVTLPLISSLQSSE
- T1 sequence 2: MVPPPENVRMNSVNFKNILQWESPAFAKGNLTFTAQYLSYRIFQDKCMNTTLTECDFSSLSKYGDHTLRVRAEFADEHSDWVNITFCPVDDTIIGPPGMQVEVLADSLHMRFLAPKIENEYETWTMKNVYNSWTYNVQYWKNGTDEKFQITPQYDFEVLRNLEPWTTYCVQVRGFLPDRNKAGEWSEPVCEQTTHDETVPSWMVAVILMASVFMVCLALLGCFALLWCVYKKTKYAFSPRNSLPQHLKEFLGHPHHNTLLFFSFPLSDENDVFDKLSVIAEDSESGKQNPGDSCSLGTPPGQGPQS
- assay text: cell-based or functional assay
What Abs 630 (25 nM) was measured for each of the following?
Answers are plain numbers, in Abs 630.

{"columns": ["binder", "unit info", "Abs 630 (25 nM)"],
 "data": [
  ["IL10R binding molecule of SEQ ID NO: 319 (bispecific antibody) QVQLQESGGGSVQAGGSLRLSCAASRYTYNSYCMGWFRQAPGKEREGVATIDSDGMTRYADSVKGRFTISKDNAKNTLYLQMNSLKPEDTAMYYCAADADCTIAAMTTNPLGQGTQVTVSSGGGSQVQLQESGGGSVQAGGSLRLSCAASRYLYSIDYMAWFRQSPGKEREPVAVIYTASGATFYPDSVKGRFTISQDNAKMTVYLQMNSLKSEDTAMYYCAAVRKTDSYLFDAQSFTYWGQGTQVTVSSASHHHHHH", "Abs 630", 0.47]
]}

Prompt: Answer with reported Abs 630 (25 nM) of IL10R binding molecule of SEQ ID NO: 351 (bispecific antibody) QVQLQESGGGSVQTGGSLRLSCAASGYTYLRGCMGWFRQAPGKEREGVAVMDVVGDRRSYIDSVKGRFTISRDNAANSVYLQMDNLKPEDTAMYYCTAGPNCVGWRSGLDYWGQGTQVTVSSGGGSQVQLQESGGGSVQAGGSLRLSCTVSGYTYSSNCMGWFRQAPGKEREGVATIYTGGGNTYYADSVKGRFTISQDNAKNTVYLQMNNLKPEDTAMYYCAAEPLSRVYGGSCPTPTFDYWGQGTQVTVSSASHHHHHH
Response: 0.43
